Values compiled from patent US8124788B2.

Target: human μ opiate receptor (Homo sapiens, UniProt P35372)
Construct: purchased PerkinElmer Life Sciences, Zaventem, Belgium RB-HOM; host or cells: CHO-K1 cells (recombinant expression)
Sequence (P35372 whole entry): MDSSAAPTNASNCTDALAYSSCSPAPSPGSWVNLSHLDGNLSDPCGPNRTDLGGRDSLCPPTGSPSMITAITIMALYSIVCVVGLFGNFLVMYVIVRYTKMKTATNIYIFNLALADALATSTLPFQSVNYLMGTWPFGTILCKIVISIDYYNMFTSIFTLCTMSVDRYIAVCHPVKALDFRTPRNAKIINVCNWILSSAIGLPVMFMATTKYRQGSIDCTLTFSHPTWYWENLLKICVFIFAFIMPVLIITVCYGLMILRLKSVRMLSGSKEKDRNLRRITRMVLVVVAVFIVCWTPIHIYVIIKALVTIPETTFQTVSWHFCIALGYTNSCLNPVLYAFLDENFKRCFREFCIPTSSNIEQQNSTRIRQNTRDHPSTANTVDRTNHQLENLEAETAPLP
Experiment: Affinity for the human μ opiate receptor ([3H]-naloxone displacement, CHO-K1 membrane preparation, SPA)
Format: binding
Conditions: compounds prepared via automated synthesis; single measurements at a test concentration of 1 μM
Method: The receptor affinity for the human μ opiate receptor is determined in a homogeneous set-up in microtitre plates. […] After the end of the ninety-minute incubation time, the microtitre plates are centrifuged for 20 minutes at 1,000 g and the radioactivity is measured in a β-counter (Microbeta-Trilum, PerkinElmer Wallac, Freiburg, Germany). […]
For each record, write down the corresponding μ opioid receptor [1 μmol], % inhibition.
// units = %; emit number, no label

μ opioid receptor [1 μmol], % inhibition measured on CC(=O)N1CCc2c([nH]c3ccccc23)C12CCC(C(c1ccc(F)cc1)N(C)C)CC2 (stereo not drawn) = 41

μ opioid receptor [1 μmol], % inhibition measured on COCC(=O)N1CCc2c([nH]c3ccccc23)C12CCC(C(c1ccc(Cl)cc1)N(C)C)CC2 (stereo not drawn) = 20

μ opioid receptor [1 μmol], % inhibition measured on CC(C)C(=O)N1CCc2c([nH]c3ccccc23)C12CCC(C(c1ccc(Cl)cc1)N(C)C)CC2 (stereo not drawn) = 40
